- test: Activity of AAC(6')-1e/APH(2'')-1a (unknown origin) assessed as compound acetylation activity by Ellman's method
Active and inactive are the calls of the source. The rule behind the calls is not given here.
observation_type: Activity

compound="CCCCCCCCCCCCCCS(=O)(=O)C[C@@H]1O[C@@H](O[C@@H]2[C@@H](O)[C@H](O[C@@H]3O[C@@H](CN)[C@H](O)[C@@H](O)[C@@H]3N)[C@@H](N)C[C@H]2N)[C@@H](O)[C@H](N)[C@H]1O (stereo in doubt)" observation_type=Activity test_value=inactive
compound="CCCCCCCCCCCCCCSC[C@@H]1O[C@@H](O[C@@H]2[C@@H](O)[C@H](O[C@@H]3O[C@@H](CN)[C@H](O)[C@@H](O)[C@@H]3N)[C@@H](N)C[C@H]2N)[C@@H](O)[C@H](N)[C@H]1O (stereo in doubt)" observation_type=Activity test_value=inactive
compound="CCCCCCCCCCCCCCCCSC[C@@H]1O[C@@H](O[C@@H]2[C@@H](O)[C@H](O[C@@H]3O[C@@H](CN)[C@H](O)[C@@H](O)[C@@H]3N)[C@@H](N)C[C@H]2N)[C@@H](O)[C@H](N)[C@H]1O (stereo in doubt)" observation_type=Activity test_value=inactive

###

- test: Hemolytic activity against mouse RBC at 125 ug/ml after 60 mins
- Format: ADME, cell-based, Erythrocyte
- reported_conditions: red blood cells, read-out: Activity
observation_type: hemolysis at 1 h, 125 ug/ml (%)
Report only the number, with the unit % understood.

Endpoint output: hemolysis at 1 h, 125 ug/ml of CCCCCCCCCCCCSC[C@@H]1O[C@@H](O[C@@H]2[C@@H](O)[C@H](O[C@@H]3O[C@@H](CN)[C@H](O)[C@@H](O)[C@@H]3N)[C@@H](N)C[C@H]2N)[C@@H](O)[C@H](N)[C@H]1O (stereo in doubt) . Value?
40

###

- test: Hemolytic activity against mouse RBC at 500 ug/ml after 60 mins
- Format: ADME, cell-based, Erythrocyte
- reported_conditions: red blood cells, read-out: Activity
observation_type: hemolysis at 1 h, 500 ug/ml (%)
Report only the number, with the unit % understood.

Endpoint output: hemolysis at 1 h, 500 ug/ml of CCCCCCCCCCCCCCSC[C@@H]1O[C@@H](O[C@@H]2[C@@H](O)[C@H](O[C@@H]3O[C@@H](CN)[C@H](O)[C@@H](O)[C@@H]3N)[C@@H](N)C[C@H]2N)[C@@H](O)[C@H](N)[C@H]1O (stereo in doubt) . Value?
73

###

- Test system: Candida albicans
- test: Antifungal activity against azole-resistant Candida albicans ATCC 64124 after 48 hrs by microbroth dilution method
- Type: functional
- reported_conditions: ATCC 64124, 48 h
MIC values by entry
Report only the number, with the unit µg/mL understood.

Study these solved cases before continuing.
molecule="CCCCCCCCCCCCCCSC[C@@H]1O[C@@H](O[C@@H]2[C@@H](O)[C@H](O[C@@H]3O[C@@H](CN)[C@H](O)[C@@H](O)[C@@H]3N)[C@@H](N)C[C@H]2N)[C@@H](O)[C@H](N)[C@H]1O (stereo in doubt)" observation_type=MIC test_value=7.8
molecule="CCCCCCCCCCSC[C@@H]1O[C@@H](O[C@@H]2[C@@H](O)[C@H](O[C@@H]3O[C@@H](CN)[C@H](O)[C@@H](O)[C@@H]3N)[C@@H](N)C[C@H]2N)[C@@H](O)[C@H](N)[C@H]1O (stereo in doubt)" observation_type=MIC test_value=125
molecule="CCCCCCCCCCCCCCCCSC[C@@H]1O[C@@H](O[C@@H]2[C@@H](O)[C@H](O[C@@H]3O[C@@H](CN)[C@H](O)[C@@H](O)[C@@H]3N)[C@@H](N)C[C@H]2N)[C@@H](O)[C@H](N)[C@H]1O (stereo in doubt)" observation_type=MIC test_value=3.9
molecule="CCCCCCCCCCCCCCS(=O)(=O)C[C@@H]1O[C@@H](O[C@@H]2[C@@H](O)[C@H](O[C@@H]3O[C@@H](CN)[C@H](O)[C@@H](O)[C@@H]3N)[C@@H](N)C[C@H]2N)[C@@H](O)[C@H](N)[C@H]1O (stereo in doubt)" observation_type=MIC test_value=3.9
molecule="CCCCCCCCCCCCS(=O)(=O)C[C@@H]1O[C@@H](O[C@@H]2[C@@H](O)[C@H](O[C@@H]3O[C@@H](CN)[C@H](O)[C@@H](O)[C@@H]3N)[C@@H](N)C[C@H]2N)[C@@H](O)[C@H](N)[C@H]1O (stereo in doubt)" observation_type=MIC test_value=31.2

Endpoint output: MIC of CCCCCCCCCCCCSC[C@@H]1O[C@@H](O[C@@H]2[C@@H](O)[C@H](O[C@@H]3O[C@@H](CN)[C@H](O)[C@@H](O)[C@@H]3N)[C@@H](N)C[C@H]2N)[C@@H](O)[C@H](N)[C@H]1O (stereo in doubt) . Value?
31.2

###

- Tested on: Serratia marcescens
- test: Activity of Serratia marcescens AAC(6')-2d assessed as compound acetylation activity by Ellman's method
The source made the active and inactive calls. The calls are words filed in the database; no cut-off is given here.
observation_type: Activity

compound="CCCCCCCCCCCCCCSC[C@@H]1O[C@@H](O[C@@H]2[C@@H](O)[C@H](O[C@@H]3O[C@@H](CN)[C@H](O)[C@@H](O)[C@@H]3N)[C@@H](N)C[C@H]2N)[C@@H](O)[C@H](N)[C@H]1O (stereo in doubt)" observation_type=Activity test_value=inactive
compound="CCCCCCCCCCCCCCCCSC[C@@H]1O[C@@H](O[C@@H]2[C@@H](O)[C@H](O[C@@H]3O[C@@H](CN)[C@H](O)[C@@H](O)[C@@H]3N)[C@@H](N)C[C@H]2N)[C@@H](O)[C@H](N)[C@H]1O (stereo in doubt)" observation_type=Activity test_value=inactive
compound="CCCCCCCCSC[C@@H]1O[C@@H](O[C@@H]2[C@@H](O)[C@H](O[C@@H]3O[C@@H](CN)[C@H](O)[C@@H](O)[C@@H]3N)[C@@H](N)C[C@H]2N)[C@@H](O)[C@H](N)[C@H]1O (stereo in doubt)" observation_type=Activity test_value=inactive

###

- test: Hemolytic activity against mouse RBC at 100 to 500 ug/ml after 60 mins
- Format: ADME, cell-based
- reported_conditions: erythrocyte, 1 h
observation_type: Activity

Study these solved cases before continuing.
compound="CCCCCCCCSC[C@@H]1O[C@@H](O[C@@H]2[C@@H](O)[C@H](O[C@@H]3O[C@@H](CN)[C@H](O)[C@@H](O)[C@@H]3N)[C@@H](N)C[C@H]2N)[C@@H](O)[C@H](N)[C@H]1O (stereo in doubt)" test_value=Non-toxic
compound="CCCCCCCCCCCCCCCCSC[C@@H]1O[C@@H](O[C@@H]2[C@@H](O)[C@H](O[C@@H]3O[C@@H](CN)[C@H](O)[C@@H](O)[C@@H]3N)[C@@H](N)C[C@H]2N)[C@@H](O)[C@H](N)[C@H]1O (stereo in doubt)" test_value=Toxic
compound="C[C@@H]1[C@H](O)[C@@H](C)/C=C/C=C/C=C/C=C/C=C/C=C/C=C/[C@H](O[C@@H]2O[C@H](C)[C@@H](O)[C@H](N)[C@@H]2O)C[C@@H]2O[C@](O)(C[C@@H](O)C[C@@H](O)[C@H](O)CC[C@@H](O)C[C@@H](O)CC(=O)O[C@H]1C)C[C@H](O)[C@H]2C(=O)O [AMPHOTERICIN B]" test_value=Toxic
compound="NC[C@H]1O[C@H](O[C@H]2[C@H](O)[C@@H](O[C@H]3O[C@H](CO)[C@@H](O)[C@H](N)[C@H]3O)[C@H](N)C[C@@H]2N)[C@H](N)[C@@H](O)[C@@H]1O [BEKANAMYCIN]" test_value=Non-toxic

Endpoint output: Activity of CCCCCCCCCCSC[C@@H]1O[C@@H](O[C@@H]2[C@@H](O)[C@H](O[C@@H]3O[C@@H](CN)[C@H](O)[C@@H](O)[C@@H]3N)[C@@H](N)C[C@H]2N)[C@@H](O)[C@H](N)[C@H]1O (stereo in doubt) . Value?
Non-toxic

###

- Test system: Staphylococcus aureus
- test: Antibacterial activity against Staphylococcus aureus ATCC 29213 by microdilution method
- Type: functional
MIC values by entry
Report only the number, with the unit µg/mL understood.

Endpoint output: MIC of CCCCCCCCCCCCCCS(=O)(=O)C[C@@H]1O[C@@H](O[C@@H]2[C@@H](O)[C@H](O[C@@H]3O[C@@H](CN)[C@H](O)[C@@H](O)[C@@H]3N)[C@@H](N)C[C@H]2N)[C@@H](O)[C@H](N)[C@H]1O (stereo in doubt) . Value?
128

Endpoint output: MIC of CCCCCCCCCCCCS(=O)(=O)C[C@@H]1O[C@@H](O[C@@H]2[C@@H](O)[C@H](O[C@@H]3O[C@@H](CN)[C@H](O)[C@@H](O)[C@@H]3N)[C@@H](N)C[C@H]2N)[C@@H](O)[C@H](N)[C@H]1O (stereo in doubt) . Value?
128

Endpoint output: MIC of CCCCCCCCSC[C@@H]1O[C@@H](O[C@@H]2[C@@H](O)[C@H](O[C@@H]3O[C@@H](CN)[C@H](O)[C@@H](O)[C@@H]3N)[C@@H](N)C[C@H]2N)[C@@H](O)[C@H](N)[C@H]1O (stereo in doubt) . Value?
64
